TARGET_UNDER_TEST: recombinant MPTPB enzyme (Mycobacterium tuberculosis, UniProt I6WXK4)
Sequence (I6WXK4 whole entry, looked up): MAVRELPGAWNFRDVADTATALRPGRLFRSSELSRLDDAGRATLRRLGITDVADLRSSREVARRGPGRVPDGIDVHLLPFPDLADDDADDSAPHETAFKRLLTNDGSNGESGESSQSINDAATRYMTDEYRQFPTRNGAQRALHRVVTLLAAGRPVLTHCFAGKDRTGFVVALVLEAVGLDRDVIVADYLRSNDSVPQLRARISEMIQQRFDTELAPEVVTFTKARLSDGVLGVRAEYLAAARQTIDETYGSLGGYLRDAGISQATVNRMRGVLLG
TEST_SUMMARY: MPTPB enzymatic assay (DiFMUP substrate, fluorescence)
Format: biochemical
CONDITION_SET: recombinant MPTPB 50 ng/ml, pH 6.6, 45 minutes at room temperature
Method: The compounds of the inventions have been tested in the following enzymatic assay: Five μl of diluted compound or vehicle (100% DMSO) was distributed to a 96 well plate. […] After 45 minutes incubation at room temperature fluorescence intensity was measured on a Perkin-Elmer Fusion spectrofluorimeter (excitation at 355 nm, emission at 460 nm, for 0.2 s). […]
Reported IC50 values for the following compounds.

COMPOUND	TARGET_UNDER_TEST	IC50
CC(CNS(=O)(=O)c1ccc(CN(Cc2cccc(Cl)c2)C(=O)C(=O)O)s1)c1ccc(Cl)cc1 (stereo not drawn) [Example 24]	recombinant MPTPB enzyme (Mycobacterium tuberculosis, UniProt I6WXK4)	770 nM
O=C(O)C(=O)N(Cc1cccc(Cl)c1)Cc1ccc(S(=O)(=O)NCCC(c2ccccc2)c2ccccc2)s1 [Example 14]	recombinant MPTPB enzyme (Mycobacterium tuberculosis, UniProt I6WXK4)	790 nM
CCCCCCCCCCCCNS(=O)(=O)c1ccc(CN(Cc2ccccc2F)C(=O)C(=O)O)s1 [Example 6]	recombinant MPTPB enzyme (Mycobacterium tuberculosis, UniProt I6WXK4)	740 nM
